- TARGET OF ASSAY: cynomolgus LIV-1 (cynomolgus, UniProt A0A2K5WH46 30-741)
- Sequence (A0A2K5WH46 entry or part of it): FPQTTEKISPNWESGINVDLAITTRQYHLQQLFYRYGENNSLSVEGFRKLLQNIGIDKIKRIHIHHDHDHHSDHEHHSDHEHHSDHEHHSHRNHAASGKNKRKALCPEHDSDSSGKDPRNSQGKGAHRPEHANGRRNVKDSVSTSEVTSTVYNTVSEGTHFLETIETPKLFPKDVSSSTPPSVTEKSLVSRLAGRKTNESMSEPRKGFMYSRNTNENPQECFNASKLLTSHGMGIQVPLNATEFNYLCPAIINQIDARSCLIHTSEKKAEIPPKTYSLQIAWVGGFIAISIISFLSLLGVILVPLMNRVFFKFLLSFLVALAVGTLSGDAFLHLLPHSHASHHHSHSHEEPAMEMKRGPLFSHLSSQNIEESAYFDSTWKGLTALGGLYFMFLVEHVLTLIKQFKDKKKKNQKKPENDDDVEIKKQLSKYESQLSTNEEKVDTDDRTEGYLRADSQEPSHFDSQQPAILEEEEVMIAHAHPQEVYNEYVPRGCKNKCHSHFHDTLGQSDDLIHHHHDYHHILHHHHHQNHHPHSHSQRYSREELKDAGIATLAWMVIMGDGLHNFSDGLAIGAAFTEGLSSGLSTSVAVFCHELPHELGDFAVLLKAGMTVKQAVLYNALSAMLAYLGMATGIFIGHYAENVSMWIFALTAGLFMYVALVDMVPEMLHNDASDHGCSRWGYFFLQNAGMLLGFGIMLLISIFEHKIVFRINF
- EXPERIMENTAL DETAILS: FACS, HEK293/Cyno_LIV-1 cells
READOUT LABEL: EC50 (nM)
Unit nM implied. Number only.

BINDER | EC50 (nM)
5D6B10.Z3 (antibody, V domains shown) VH: QVQLVESGGGVVQPGRSLRLSCAVSGFSLTTYGIHWVRQAPGKGLEWLAVIWTGGTTDYNAAFISRFTISKDNSKSTLYLQMNSLRAEDTAVYYCARGPSSYWGQGTLVTVSS VL: DIVMTQSPATLSVSPGERVTVSCKASQNVDTNVVWYQQKPGQSPRALIHSASYRYSGVPDRFSGSGSGTDFTLTISSVQSEDFAVYFCQQYNNYPWTFGGGTKLEIK | 0.23
124H4D11.p2.z7 (antibody, V domains shown) VH: QVPLVQSGAEVVKPGASVKVSCKASGFNIKDYYMHWVRQAPGQGLEWIGWIDPENDDTEYDPKFQGRATMTADTSTSTAYMELSSLRSEDTAVYYCNARYYAFDYWGQGTTVTVSS VL: DVLMTQSPSSLSASVGDRVTITCRSSQSIVHSNANTYLEWYLQKPGKSPKLLIYKVSNRFSGVPDRFSGSGSGTEFTLTISSVQPEDFAVYYCFQGSQVPPTFGQGTRLEIK | 1.48

Value lookup for EC50; key = 5D6B10.Z8 (antibody, V domains shown) VH: QVQLVQSGGGVVQPGRSLRLSCTVSGFSLTTYGIHWVRQSPGKGLEWLGVIWTGGTTDYNAAFISRLTISKDNSKSTVYFQMNSLQAEDTAIYYCARGPSSYWGQGTLVTVSS VL: EIVMTQSPATLSVSPGERATVSCKASQNVDTNVVWYQQKPGQSPRALIHSASYRYSGVPDRFSGSGSGTDFTLTISSLQSEDFAVYFCQQYNNYPWTFGQGTKVEIK
4

Moving on to 124H4D11.p2.z12 (antibody, V domains shown) VH: QVPLVQSGAEVVKPGASVKLSCKASGFNIKDYYMHWVKQAPGQGLEWIGWIDPENDDTEYDPKFQGRATMTADTSTSTAYLELSSLRSEDTAVYYCNARYYAFDYWGQGTTVTVSS VL: DVLMTQSPSSLSASVGDRVTITCRSSQSIVHSNANTYLEWYLQKPGKSPKLLIYKVSNRFSGVPDRFSGSGSGTEFTLTISSVQPEDFAVYYCFQGSQVPPTFGQGTRLEIK
3.8

Moving on to 5D6B10 (antibody, V domains shown, Tested as chimeric antibody) VH: QVQLKQSGPGLVQPSQSLSITCTVSGFSLTTYGIHWVRQSPGKGLEWLGVIWTGGTTDYNAAFISRLSISKDNSKSQVFFKMNSLQANDTAIYYCARGPSSYWGQGTLVTVSA VL: DIVMTQSQKFMSTSVGDRVSVTCKASQNVDTNVVWYQQKPGQSPKALIHSASYRYSGVPDRFTGSGSGTDFTLTISNVQSEDLAEYFCQQYNNYPWTFGGGTKLEIK
0.39
